# protocol: Primary qHTS for inhibitors of nuclear receptor binding SET domain protein 2 (NSD2) in an RCH-ACV wild type WT cells (2C) (AID 1645877); further: nearly all actives have a fitted effect of over 70% in size
# conditionParameters: RCH-ACV (leukaemia line) NSD2 WT (2C) viability, CellTiter-Glo, 72 h; series mostly up to 44.9 µM
Results filed as inconclusive are left out. Activity calls are given as the source filed them. The call rests on the fitted dose curve; in most records, active means well fitted inhibition curve with a large enough effect; inconclusive means small, poorly fitted or top-dose-only effect; inactive means no such curve, though single readings can be large or run the other way.
API: response.call in active, inactive

Example entries and their recorded answers appear below.
# compound, labelClass
measured = [
    ("Nc1ccc(S(=O)(=O)Nc2cnc3ccccc3n2)cc1", "inactive"),
    ("CC1CCc2c(N3CCC(O)CC3)c(F)cc3c(=O)c(C(=O)O)cn1c23 (stereo unspecified)", "inactive"),
    ("Oc1c(Cl)cc(Cl)c(Cl)c1Cc1c(O)c(Cl)cc(Cl)c1Cl", "active"),
    ("C[C@@H](O)[C@H]1C(=O)N2C(C(=O)O)=C([C@H]3CCCO3)S[C@H]12", "inactive"),
    ("CC(=O)Nc1ncc([N+](=O)[O-])s1", "inactive"),
]

[in] Hi, sorry to bother you, what did the test record for "CN(C)C(=O)Nc1ccc(Cl)c(Cl)c1" ?
[out] inactive

[in] Hi, sorry to bother you, what did the test record for "CCNC(=O)/C=C/c1cccc(Br)c1" ?
[out] inactive

[in] Hi, sorry to bother you, what did the test record for "O=S(=O)(O)c1ccc(O)cc1" ?
[out] inactive

[in] Hi, sorry to bother you, what did the test record for "C[C@@H](O)[C@H]1C(=O)N2C(C(=O)O)=C(S[C@@H]3CN[C@H](CNS(N)(=O)=O)C3)[C@H](C)[C@H]12" ?
[out] inactive

[in] Hi, sorry to bother you, what did the test record for "CC(C)(C)CC(C)(C)c1ccc(O)c(-n2nc3ccccc3n2)c1" ?
[out] inactive

[in] Hi, sorry to bother you, what did the test record for "CCCCCCCCCCCCCCCC(=O)O" ?
[out] inactive
